Tested on: U2OS
PROTOCOL: cell viability relative to DMSO; higher = less toxic
TEST PARAMETERS: 72 h; 1000 nM
Exercise: state measured cell viability for each of the compounds provided.
Give bare numbers, in %.

CC(C)=CCc1c(O)cc(O)c2c(=O)c(O)c(-c3ccc(C(F)(F)F)cc3)oc12: 99.9
NC(=O)NO [hydroxyurea]: 96
Cc1cc(Nc2cc(N3CCN(C)CC3)nc(Sc3ccc(NC(=O)C4CC4)cc3)n2)n[nH]1: 86.2
CCOc1c2c(c(OCC)c3ccccc13)C(=O)N(c1ccc(CC(=O)NS(=O)(=O)c3ccccc3)cc1)C2: 98.9

Each compound below has a reported value. Please supply its cell viability.
1. O=C1C(=C(O)/C=C/c2ccc(O)cc2)C(=O)[C@@](O)([C@@H]2O[C@H](CO)[C@@H](O)[C@H](O)[C@H]2O)C(=O)[C@H]1[C@@H]1O[C@H](CO)[C@@H](O)[C@H](O)[C@H]1O
2. COc1cccc([C@@H](C)NCCCc2ccccc2Cl)c1
3. CN(C)C(=O)[C@H](O)[C@H](Cc1ccccc1)NC(=O)c1cc2cc(Cl)ccc2[nH]1
4. COc1cc(/C=C2\CCC/C(=C\c3ccc(O)c(OC)c3)C2=O)ccc1O

Key:
1: 99.3; 2: 102; 3: 95.3; 4: -0.3

====

Tested on: Vero E6
PROTOCOL: relative viability EC50 (midpoint between 100% and the lowest measured viability); higher = less toxic
TEST PARAMETERS: 72 h
READOUT NAME: relative viability EC50

Sample answers from the record:
OC[C@@H](O)[C@H]1O[C@@H]2O[C@H](C(Cl)(Cl)Cl)O[C@@H]2[C@H]1O [chloralose]: > 10 µM
Cc1cccc(C)c1NC(=O)CC12CCCN1CCC2 [pilsicainide]: > 10 µM
Nc1ncc2c(n1)CC(c1ccco1)CC2=O (stereo not drawn) [NKY-80]: > 10 µM

Each compound below has a reported value. Please supply its relative viability EC50.
1. CC(C)[C@H]1CC[C@H](C(=O)N[C@H](Cc2ccccc2)C(=O)O)CC1 [nateglinide]
2. NS(=O)(=O)c1cc(Cl)c(Cl)c(S(N)(=O)=O)c1 [diclofenamide]

Key:
> 10 µM
> 10 µM

Each compound below has a reported value. Please supply its relative viability EC50.
1. CC(C)(C)C(=O)OCOC(=O)[C@@H]1N2C(=O)[C@@H](/N=C/N3CCCCCC3)[C@H]2SC1(C)C [pivmecillinam]
2. C[C@H](NCc1ccc(OCc2ccccc2F)cc1)C(N)=O [priralfinamide]
3. C[C@H](CCC(=O)O)[C@H]1CC[C@H]2[C@@H]3[C@@H](O)C[C@@H]4C[C@H](O)CC[C@]4(C)[C@H]3CC[C@]12C [ursodiol]
4. CCCc1cc(C(N)=S)ccn1 [protionamide]
5. O=C1Nc2cc(Cl)c(Cl)cc2N2CCNC[C@H]12
6. O=C1C[C@@]2(C(=O)N1)C(=O)N(Cc1ccc(Br)cc1F)C(=O)c1cccn12 [ranirestat]

Key:
1: > 10 µM; 2: > 10 µM; 3: > 10 µM; 4: > 10 µM; 5: > 10 µM; 6: > 10 µM

====

Test system: U2OS
PROTOCOL: cell viability relative to DMSO; higher = less toxic
TEST PARAMETERS: 72 h; 100 nM
Exercise: state measured cell viability for each of the compounds provided.
One number for each entry, in %.

Sample answers from the record:
CCCCCCCCCCC[C@@H](C[C@@H]1OC(=O)[C@H]1CCCCCC)OC(=O)[C@H](CC(C)C)NC=O [orlistat]: 92.6
CC(=O)Nc1ccc(NC(=S)NC(=O)c2ccc(C(C)(C)C)cc2)cc1 [tenovin-1]: 96.2
CC/C=C\C/C=C\C/C=C\C/C=C\C/C=C\C/C=C\CCC(=O)OCC [doconexent-ethyl-ester]: 97.3
CN1CCN(c2cccc(Nc3nc4c(-c5ccc(S(C)(=O)=O)cc5)cccn4n3)c2)CC1: 94.8
N[C@@H](C(=O)O)c1ccc(C(=O)O)c(C(=O)O)c1 (racemic) [3,4-DCPG-(+/-)]: 103
O[C@@H](CN1CCC(Cc2ccc(F)cc2)CC1)c1ccc(Cl)cc1 (racemic) [eliprodil]: 87.3
O=C(Nc1ccccc1C(=O)Nc1ccc(CCO)cc1)c1ccc([N+](=O)[O-])cc1 [KS-176]: 97.6
CC(C)(C)C(=O)OCOC(=O)[C@@H]1N2C(=O)[C@@H](/N=C/N3CCCCCC3)[C@H]2SC1(C)C [pivmecillinam]: 103
N=C(N)SCCc1ccc(OCc2ccc([N+](=O)[O-])cc2)cc1 [KB-R7943]: 98.3
CCCCc1nc(C)c(CC(=S)N(C)C)c(=O)n1Cc1ccc(-c2ccccc2-c2nnn[nH]2)cc1 [fimasartan]: 102

Each compound below has a reported value. Please supply its cell viability.
1. OCCc1ccc(OCCn2ccnc2)cc1 [MR-948]
2. CC(=O)N(C)c1cc(-c2ccnc3c(C(=O)c4cccs4)cnn23)ccc1F [lorediplon]
3. CC1(N2CCC(n3c([C@@H]4CCCNC4)nc4ccccc43)CC2)CCCCCCC1 [MCOPPB]
4. Cc1cccc(C)c1-n1c(=O)c2cnc(Nc3ccc(N4CCN(C)CC4)cc3)nc2n2c3ccccc3nc12 [TC-S-7003]

Key:
1: 98.6; 2: 97; 3: 98.6; 4: 91.8

Each compound below has a reported value. Please supply its cell viability.
1. CCN(CC)Cc1nccn1-c1ccc([N+](=O)[O-])cc1C(=O)c1ccccc1Cl [nizofenone]
2. Cc1c(Cc2ccc3ccccc3n2)c2cc(F)ccc2n1CC(=O)O
3. CN(C)c1ccc2c(c1)Sc1cc(N(C)C)ccc1N2 [leucomethylene-blue]

Key:
1: 97.1; 2: 95.4; 3: 97.2

====

Tested on: Calu-3
PROTOCOL: cell viability relative to DMSO; higher = less toxic
TEST PARAMETERS: 72 h; 100 nM
READOUT NAME: cell viability (%)
Numbers only, in %.

Each compound below has a reported value. Please supply its cell viability.
1. CC(=O)Nc1ccc(NC(=S)NC(=O)c2ccc(C(C)(C)C)cc2)cc1 [tenovin-1]
2. COc1ccc(/C=C/C(=O)Nc2ccccc2C(=O)O)cc1OC [tranilast]
3. CC(C)NCC(O)c1ccc(N)c(C#N)c1 (stereo not drawn) [cimaterol]
4. COc1cc2c(c(OC)c1OC)-c1c(cc3c(c1OC)OCO3)C[C@H](C)[C@@](C)(O)C2 [schisandrol-B]
5. CN(C)c1ccc2c(c1)Sc1cc(N(C)C)ccc1N2 [leucomethylene-blue]
6. CSc1ccccc1Nc1nc(N2CCNCC2)nc2c(NCC3CC3)ncnc12 [KHK-IN-1]

Key:
1. 95.8
2. 88.3
3. 101
4. 101
5. 102
6. 106

Each compound below has a reported value. Please supply its cell viability.
1. COc1c(N2CCNC(C)C2)c(F)cc2c(=O)c(C(=O)O)cn(C3CC3)c12 (stereo not drawn) [gatifloxacin]
2. C[n+]1cccc(C(=O)[O-])c1 [trigonelline]
3. N=C(N)SCCc1ccc(OCc2ccc([N+](=O)[O-])cc2)cc1 [KB-R7943]
4. CN1c2ccccc2C(NCCCCCCC(=O)O)c2ccc(Cl)cc2S1(=O)=O (stereo not drawn) [tianeptine]
5. Cc1cc(N2CCN([C@@H]3CN[C@H](C(=O)N4CCSC4)C3)CC2)n(-c2ccccc2)n1 [teneligliptin]
6. CC(C)C[C@H](NC(=O)N1CCCCCC1)C(=O)N[C@H](Cc1cn(C)c2ccccc12)C(=O)N[C@H](Cc1ccccn1)C(=O)O
7. C[C@H](CCC(=O)O)[C@H]1CC[C@H]2[C@@H]3[C@@H](O)C[C@@H]4C[C@H](O)CC[C@]4(C)[C@H]3CC[C@]12C [ursodiol]
8. CCCCOCCOc1nc(-c2ccc(C(=O)O)c(F)c2)sc1C

Key:
1: 103; 2: 105; 3: 93.5; 4: 92.4; 5: 92.6; 6: 97.9; 7: 102; 8: 109

====

Test system: Caco-2
PROTOCOL: cell viability relative to DMSO; higher = less toxic
TEST PARAMETERS: 72 h; 100 nM
Exercise: state measured cell viability for each of the molecules provided.
Answers are plain numbers, in %.

Sample answers from the record:
CC(C)c1c(NC(=O)Nc2ccc(Cl)cc2)c(=O)n(-c2ccccc2)n1C: 102
CCC1(c2ccccc2)C(=O)NCNC1=O: 84.5
CC(C)(Sc1ccc(CCN(CCCCC2CCCCC2)C(=O)NC2CCCCC2)cc1)C(=O)O: 98.3
OC(CCCN1CCCCC1)(c1ccccc1)c1ccccc1: 90.5
N[C@@H](C(=O)O)c1ccc(C(=O)O)c(C(=O)O)c1 (racemic) [3,4-DCPG-(+/-)]: 103
CC(=O)Nc1ccc(NC(=S)NC(=O)c2ccc(C(C)(C)C)cc2)cc1: 106
COc1ccc(/C=C/C(=O)Nc2ccccc2C(=O)O)cc1OC: 95.3
C[C@H](NC(=O)c1sccc1OCc1ccc(Cl)cc1)c1ccccc1: 104
O=C(c1ccc(F)cc1)N1CCC[C@H](c2nc(-c3ccc(F)cc3)no2)C1: 91.8
NS(=O)(=O)c1cc(Cl)c(Cl)c(S(N)(=O)=O)c1 [diclofenamide]: 112

Each molecule below has a reported value. Please supply its cell viability.
1. CN1CCN(C(=O)C2C(C(=O)O)[C@H]3CC[C@@H]2O3)CC1 (some centres undefined)
2. CC1(C)OC2(C)C(O)CC1CC2O (centres undefined)
3. CC(=O)N(C)c1cc(-c2ccnc3c(C(=O)c4cccs4)cnn23)ccc1F
4. CCCCCCC(=O)OC1CC(C)(C)NC(C)(C)C1
5. CC(C)=CCc1c(O)cc(O)c2c(=O)c(O)c(-c3ccc(C(F)(F)F)cc3)oc12
6. C[N+]1([O-])[C@@H]2CC[C@H]1C[C@@H](OC(=O)C(CO)c1ccccc1)C2 (some centres undefined) [atropine-oxide]
7. COc1ccc(-c2nc(N3CCOCC3)c3sc(CN(C)c4ncc(C(=O)NO)cn4)cc3n2)cn1
8. CC1(C)Oc2ccc(C#N)cc2[C@@H](N2CCCC2=O)[C@@H]1O

Key:
1. 99.8
2. 98.2
3. 87.5
4. 99.3
5. 98.1
6. 99.3
7. 3.5
8. 99.1

Exercise: Recorded cell viability for OC(CCN1CCCCC1)(c1ccccc1)C1CCCCC1 (centres undefined) , please?
Key: 95.5
